Recorded measurements of growth, one per entry
test system: IGROV1 ovarian; assay: NCI-60 one-dose screen, 48 h (100 = growth as untreated, 0 = no growth, -100 = all killed); conditions: 10 µM unless noted
Compounds without any hit were thinned out: in the full panel of roughly 83,000, 20% have a hit.

| Molecule | growth [%] |
| --- | --- |
| O=C(/C=C/c1ccc(O)c(O)c1)NC1CCOC1O (centres undefined) | 111 |
| CCCSc1nc(NCCc2c[nH]c3ccccc23)c(C#N)c(-c2ccc(F)cc2)n1 | 85.8 |
| CC(=O)OC[C@@]1(C)C2CC[C@]3(C)C(CC=C4C5CC(C)(C)CC[C@]5(C(=O)Nc5ccc(C)cc5)CC[C@]43C)[C@@]2(C)C[C@@H](OC(C)=O)[C@@H]1OC(C)=O (some centres undefined) | 60.9 |
| O=c1[nH]c2ccc(Cl)cc2cc1CSc1nccc(-c2ccc(Cl)cc2)n1 | 59.3 |

###

tested on: SF-268 CNS; assay: NCI-60 one-dose screen, 48 h (100 = growth as untreated, 0 = no growth, -100 = all killed); details: 10 µM unless noted
The panel holds about 83,000 compounds, 20% with a hit somewhere; the sample as a whole holds those more often.
# binarize growth: threshold 50% inclusive, high side satisfied, low side not satisfied

| Compound | Group |
| --- | --- |
| NC(=S)Nc1cccc(NC(N)=S)c1 | satisfied |
| N#Cc1ccc(/C=N/NC(=O)c2[nH]c3ccc(Br)cc3c2-c2ccccc2)o1 | not satisfied |
| Cc1nc(Nc2ccccn2)sc1C(=O)CC(SCC(=O)Nc1ccc(Cl)cc1)c1ccccc1F (centres undefined) | not satisfied |
| O=C(/C=C/c1cccc(OCc2ccccc2)c1)c1nc2ccccc2[nH]1 | satisfied |
| COc1cc2c(c(OC)c1OC)C(=O)CC(c1cccc(NC(=O)c3cc(NC(=O)[C@H](CO)NC(=O)OC(C)(C)C)ccc3Cl)c1)O2 (some centres undefined) | not satisfied |
| CSc1ccc(C(=O)Nc2ccc3nnn(/C(C#N)=C/c4ccccn4)c3c2)cc1 | not satisfied |
| COc1cc2oc(-c3cccc(C(=O)Nc4ccc(Cl)cc4)c3)cc(=O)c2c(OCC(=O)N[C@@H](Cc2ccccc2)C(=O)O)c1OC | satisfied |
| Cc1ccc(-c2nc(C#N)c(S(=O)(=O)N3CCN(S(=O)(=O)c4ccccc4)CC3)o2)cc1 | satisfied |
| O=C(Cn1c2c(sc1=O)[C@H]1[C@@H](O)[C@@H](O)[C@H](O)[C@@H]1CS2)N1CCOCC1 | satisfied |
| C=C1CCC2C3(C)COC(c4ccccc4F)OC3CCC2(C)C1CC(O)C1=CCOC1=O (centres undefined) | satisfied |
| O=C(c1ccccc1)C(c1c[nH]c2ccccc12)c1c[nH]c2ccccc12 | satisfied |
| Cn1cc(-c2nc(N)nnc2-c2c[nH]c3ccc(F)cc23)c2cccnc21 | not satisfied |
| CCOC(=O)c1ccc(Nc2nc(NN)nc(-c3ccc(OC)cc3)c2C#N)cc1 | satisfied |
| COc1ccc(/C=C2\C(=N)N=C(SCc3nc4ccccc4[nH]3)NC2=O)cc1 | satisfied |
| O=c1oc2ccccc2cc1-c1csc(N=Nc2c(O)[nH]c3ccc(Cl)cc23)n1 | satisfied |
| COc1ccc2[nH]cc(-c3nc(N)nnc3-c3cn(C)c4ncccc34)c2c1 | satisfied |
| Nc1nc(-c2ccccc2)c(N=Nc2ccc(Cl)cc2[N+](=O)[O-])s1 | satisfied |
| COc1ccc(/C=C/c2n(Cc3ccc4ccccc4c3)c3ccccc3[n+]2Cc2ccc3ccccc3c2)cc1 | not satisfied |
| CN(C)CCOc1ccc(C(=O)C2[C@H](c3ccc(Cl)cc3)[C@@H](c3ccccc3)NC23C(=O)Nc2ccccc23)cc1 (some centres undefined) | satisfied |

###

system: DU-145 prostate; assay: NCI-60 one-dose screen, 48 h; conditions: 10 µM unless noted
The panel holds about 83,000 compounds, 20% with a hit somewhere; the sample as a whole holds those more often. Active and inactive are the calls of the source. Rule for the calls: active = growth percent below 10; inactive = the rest.
Labels: true for active, false for inactive

| Compound | Group |
| --- | --- |
| Cc1ncsc1-c1ccc(CNC(=O)[C@@H]2C[C@@H](O)CN2C(=O)[C@@H](NC(=O)C2(F)CC2)C(C)(C)C)c(OCCOCCOCCOCCOc2nc(Nc3cc(S(C)(=O)=O)ccc3N[C@@H](c3cccc4c3OC(F)(F)O4)c3ncccc3Cl)nc(N3CCNCC3)n2)c1 | false |
| CC(C)CSc1nc(NCCc2c[nH]c3ccccc23)c(C#N)c(-c2ccccc2)n1 | false |
| N#Cc1c(-c2cccc3ccccc23)cc(-c2cccc(OCC(=O)O)c2)[nH]c1=O | false |
| COc1cccc(COc2ccc(NC(=O)Nc3ccc(Cl)c(C(F)(F)F)c3)cc2)c1 | false |
| COc1ccc2oc3c4[nH]c5ccccc5c4c4c(c3c2c1)C(=O)N(C(=O)OC(C)(C)C)C4=O | true |
| CCN(CC)c1ccnc(CNCCSC(c2ccccc2)(c2ccccc2)c2ccc(C)cc2)c1 | true |
| CC1(c2cc3cc(Cl)ccc3oc2=O)NC(=O)c2c(/C=C/C(=O)OC3CC4CCC3(C)C4(C)C)cccc2N1 (configuration not stated) | false |
| CSc1ccc(C(=O)Nc2ccc3nnn(/C(C#N)=C/c4ccccn4)c3c2)cc1 | true |
| C#CCOc1cc(N(CC)CC)ccc1C(C(=O)NC(C)(C)C)N(C(=O)C1CCc2cc(F)ccc2O1)c1ccc(F)c(Cl)c1 (configuration not stated) | false |
| O=C(COc1ccc(NC(=O)Nc2ccc(Cl)cc2)cc1)N/N=C/c1ccccc1 | true |
| CSc1ccc(C(=O)Nc2ccc3nn(/C(C#N)=C/c4ccccn4)nc3c2)cc1 | true |
| CCOC(=O)/C=C/c1cccc2c1C(=O)NC(C)(c1cc3cc(Cl)ccc3oc1=O)N2 (configuration not stated) | false |
| COc1ccc(C(=O)/C=C/c2cccc(Cl)c2)cc1S(N)(=O)=O | true |
| C#C[C@]1(O)CC[C@H]2[C@@H]3CC=C4c5sc(-c6ccc([N+](=O)[O-])cc6)nc5CC[C@]4(C)[C@H]3CC[C@@]21C | true |
| Cc1cc2nc3c4ccccc4n(CCNCCN(C)C)c3nc2cc1C | false |
| COc1cc2oc(-c3cccc(NC(=O)[C@H](CC(N)=O)NC(=O)OC(C)(C)C)c3)cc(=O)c2c(OC)c1OC | false |
| N=C1N=C(SCc2nc3ccccc3[nH]2)NC(=O)/C1=C/c1ccc(Cl)cc1 | false |

###

test system: MOLT-4 leukemia; test: NCI-60 one-dose screen, 48 h; conditions: 10 µM unless noted
This is part of a sample that, as a whole, favours compounds with a hit. Of some 83,000 tested, about 20% had one in any assay. Activity calls are given as the source filed them. The calls were made as follows: active = growth percent below 10; inactive = the rest.
Classes used: true (active), false (inactive)

| Compound | Group |
| --- | --- |
| C=C1CCC2C3(C)COC(c4ccccc4)OC3CCC2(C)C1CC(Sc1ccccc1)C1=CCOC1=O (centres undefined) | true |
| Nc1cccc(SCc2cc3ccccc3[nH]c2=O)c1 | false |
| Cc1ccc(Cc2cnc(NC(=O)c3ccc(/C=C4\SC(=S)N(C)C4=O)cc3)s2)cc1 | false |
| Cc1sc2c(c1C)C(c1ccc(Cl)cc1)=N[C@@H](CC(=O)NCCCCCNC(=O)COc1ccc(C3CCC(=O)NC3=O)cc1)c1nnc(C)n1-2 (some centres undefined) | false |
| COc1cc(C2CC(c3cc(OC)c(OC)c(OC)c3)=NN2c2ccccc2)ccc1OCc1ccc(C)cc1 (centres undefined) | false |
| Cc1ccc2c(N)c(C(=O)Nc3ccc(OC(F)(F)F)cc3)sc2n1 | false |
| CCCCSc1nc(NCCc2c[nH]c3ccccc23)c(C#N)c(-c2ccc(F)cc2)n1 | false |
| CN(C)c1nc(NCCNS(=O)(=O)c2ccc(C(=O)/C=C/c3ccc(Cl)cc3)cc2)nc(Nc2ccc(F)cc2)n1 | true |
| CCCCNC(=S)Nc1ccc(OCc2nc3ccccc3[nH]2)cc1 | false |
| Cc1ccccc1[C@H]1C(C(=O)c2ccc(Cl)cc2)C2(N[C@@H]1c1ccccc1)C(=O)Nc1ccccc12 (some centres undefined) | true |
| COc1ccc(/C=C2\C(=O)Nc3ccc(Cl)cc32)cc1OCc1ccccn1 | false |
| CCCCSc1nc(Nc2ccc(C(C)=O)cc2)c(C#N)c(-c2ccc(OC)cc2)n1 | false |
| COc1ccc(-c2ccnc(SCc3cc4cc(OC)ccc4[nH]c3=O)n2)cc1 | true |
| CC(C)Sc1nc(NCCc2c[nH]c3ccccc23)c(C#N)c(-c2ccccc2)n1 | true |
| CC(=O)c1c(N)c(C#N)cn1-c1ccc(Cl)cc1Cl | false |
| CCS(=O)(=O)N1CCCC(C(=O)Nc2nc3ccc(NC(=O)c4ccc(F)c(OC)c4F)cc3s2)C1 (centres undefined) | true |
| O=C(CSc1nc2ccccc2c(=O)[nH]1)NCCN1CCCCC1 | false |
| Cc1ccc(NC(=O)CN2CCN(c3ncnc4c3cnn4-c3ccccc3)CC2)cc1 | false |
| C/C(=N\N=C\c1cc([N+](=O)[O-])ccc1Cl)c1ccc2c(c1)Nc1ccccc1S2 | false |

Data origin, for the record: PubChem BioAssay (NCI)
